assay notes: in vitro
condition parameters: human
Counter-ions that a name gives are not always drawn.
Would you mind classing the entries by cytotoxicity at 41 h, 10 µM? Ranges: Low: < -20%; Medium: ≥ -20% and < 20%; High: ≥ 20%

Below are worked cases with known answers.
compound	class assignment
NCC(=O)c1ccccc1 [PHENACYLAMINE HYDROCHLORIDE]	High
CC12CCCC(O)(C1)C1CC(C)(C)C1CC2 (stereo not drawn) [beta-CARYOPHYLLENE ALCOHOL]	Medium
C=CC(C1=CC(=O)C(OC)=CC1=O)c1ccccc1 (stereo not drawn) [4-METHOXYDALBERGIONE]	Medium
Nc1nc(=O)c2[nH]c(=O)cnc2[nH]1 [XANTHOPTERIN]	High
COC(=O)C[C@H]1C(C)(C)[C@@H](OC(C)=O)[C@@H]2CC3=C4CC(=O)O[C@@H](c5ccoc5)[C@]4(C)CC[C@@H]3[C@@]1(C)C2=O [FISSINOLIDE]	Low
COc1cc(OC)c2ccc(=O)oc2c1 [CITROPTEN]	High

Q) # bin lookup: classify OC[C@H]1O[C@@H](OCCc2ccc(O)cc2)[C@H](O)[C@@H](O)[C@@H]1O [SALIDROSIDE] by its cytotoxicity at 41 h, 10 µM
A) Medium

Q) # bin lookup: classify CO[C@@H]1[C@@H](OC(N)=O)[C@@H](O)[C@H](Oc2ccc3c(O)c(NC(=O)c4ccc(O)c(CC=C(C)C)c4)c(=O)oc3c2C)OC1(C)C [NOVOBIOCIN SODIUM] by its cytotoxicity at 41 h, 10 µM
A) Medium

Q) # bin lookup: classify COc1c2ccoc2cc2oc(C)cc(=O)c12 [VISNAGIN] by its cytotoxicity at 41 h, 10 µM
A) Low
